Provenance of the data: patent US9096596B2

target: P2X7 (Homo sapiens (Human), UniProt Q99572); experiment: Radioligand binding, human P2X7-1321N1 cell membranes, tracer tritiated A-804598; details: human P2X7-1321N1 membranes; 1 hour at 4° C.; IC50 corrected for tracer concentration and affinity
Sequence (Q99572 whole entry): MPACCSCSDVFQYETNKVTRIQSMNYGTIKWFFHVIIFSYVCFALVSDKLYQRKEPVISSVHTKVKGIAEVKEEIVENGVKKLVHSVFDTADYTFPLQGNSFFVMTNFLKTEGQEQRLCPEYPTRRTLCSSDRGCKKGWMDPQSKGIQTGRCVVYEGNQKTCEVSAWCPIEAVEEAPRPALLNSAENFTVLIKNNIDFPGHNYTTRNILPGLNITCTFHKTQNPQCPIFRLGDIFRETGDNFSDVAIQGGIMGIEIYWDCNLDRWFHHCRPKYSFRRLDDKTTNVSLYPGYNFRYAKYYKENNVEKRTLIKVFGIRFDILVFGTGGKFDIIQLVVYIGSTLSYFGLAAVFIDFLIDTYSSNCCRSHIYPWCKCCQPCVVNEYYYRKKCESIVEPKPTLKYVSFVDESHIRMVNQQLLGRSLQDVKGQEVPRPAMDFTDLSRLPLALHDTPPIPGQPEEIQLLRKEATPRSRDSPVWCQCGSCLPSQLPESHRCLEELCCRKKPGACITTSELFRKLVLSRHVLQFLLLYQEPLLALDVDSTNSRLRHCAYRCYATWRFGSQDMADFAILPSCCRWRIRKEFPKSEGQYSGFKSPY
pKi: −log10 of the molar value.
Binary classification by pKi, with 7 as an inclusive lower bound for 1 (yes); all other cases are 0 (no).

Cc1nc2c(c(-c3[nH]ncc3C(F)(F)F)n1)CCN(C(=O)c1cccc(C(F)(F)F)c1Cl)C2 [Example 39] = 1 (yes)
CC1Cc2c(ncnc2-c2ccn[nH]2)CN1C(=O)c1cccc(C(F)(F)F)c1Cl (centres unmarked) [Example 62] = 1 (yes)
Cc1nc2c(c(-c3ccn[nH]3)n1)CC(C)N(C(=O)c1ccc(Cl)cc1)C2 (centres unmarked) [Example 96] = 0 (no)
O=C(c1cccc(C(F)(F)F)c1Cl)N1CCc2c(ncnc2-c2ccccc2)C1 [Example 1] = 0 (no)

With those in mind, consider the next compound.
Check if pKi >= 7 (inclusive). Item: Cc1nc2c(c(-c3ccn[nH]3)n1)CC(C)N(C(=O)c1ccc(Cl)cc1F)C2 (centres unmarked) [Example 87]
1 (yes)
